# assay.procedure: Test on the solubility in a simulated body fluid
# Assay type: physicochemical
# setup.conditions: 0.01 M PBS pH 7.4, 37° C., 5 min
reported.metric: Compound concentration: Pamoic acid (µM)
# output: bare number, implied unit µM

IN: Recorded Compound concentration: Pamoic acid of CCCCN1CCCCC1C(=O)Nc1c(C)cccc1C.CCCCN1CCCCC1C(=O)Nc1c(C)cccc1C.O=C(O)c1cc2ccccc2c(Cc2c(O)c(C(=O)O)cc3ccccc23)c1O [Preparation Example 30, bis(bupivacaine) pamoate] , please.
OUT: 75.7

IN: Lookup CCCCN1CCCCC1C(=O)Nc1c(C)cccc1C.CCCCN1CCCCC1C(=O)Nc1c(C)cccc1C.O=C(O)c1cc2ccccc2c(Cc2c(O)c(C(=O)O)cc3ccccc23)c1O [Preparation Example 12, bis(bupivacaine) pamoate]
OUT: 73.6

IN: Lookup CCCCN1CCCCC1C(=O)Nc1c(C)cccc1C.O=C(O)c1cc2ccccc2c(Cc2c(O)c(C(=O)O)cc3ccccc23)c1O [Preparation Example 10, mono(bupivacaine) pamoate]
OUT: 742.7
